# System: glucose-6-phosphate dehydrogenase-6-phosphogluconolactonase (Plasmodium falciparum 3D7)
# Test protocol: inhibition of malaria parasite G6PD (PfGluPho) – biochemical, fluorescence intensity, uHTS, primary screen (AID 504690);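 also: 0% = DMSO wells with substrate and 100% = DMSO wells lacking glucose-6-phosphate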
# Cond: PfGluPho enzyme, NADPH resazurin-diaphorase fluorescence; at 20 µM; active compounds read high
In all, about 350,000 compounds went through this assay and about 2,700 (0.77%) were called active. This is one part of a sample in which actives are shown more often than they occur.
Quick reference for inhibition among some compounds
The reply should be a number in %, with the unit left off.

# Compound, System under test, Measurement label, Assay result
data = [
    ("Cc1ccc(C(=O)OCC(=O)Nc2ccc(Cl)cn2)cc1S(=O)(=O)N1CCOCC1", "glucose-6-phosphate dehydrogenase-6-phosphogluconolactonase (Plasmodium falciparum 3D7)", "inhibition", -1.58),
    ("CC1CCCCC1NC(=O)CCS(=O)(=O)c1ccc2c(c1)NC(=O)CO2 (stereo not drawn)", "glucose-6-phosphate dehydrogenase-6-phosphogluconolactonase (Plasmodium falciparum 3D7)", "inhibition", 4.88),
    ("COc1ccc(C(C)NC(=O)C2CCCC2)cc1 (stereo not drawn)", "glucose-6-phosphate dehydrogenase-6-phosphogluconolactonase (Plasmodium falciparum 3D7)", "inhibition", -12.4),
    ("O=S1(=O)N=C(N(CCO)/N=C/c2ccccc2F)c2ccccc21", "glucose-6-phosphate dehydrogenase-6-phosphogluconolactonase (Plasmodium falciparum 3D7)", "inhibition", -22.8),
    ("Cc1ccc(-n2ncc(C(=O)NC3CC3)c2C2CCN(C(=O)OC(C)(C)C)CC2)c(C)c1", "glucose-6-phosphate dehydrogenase-6-phosphogluconolactonase (Plasmodium falciparum 3D7)", "inhibition", -21.1),
]

// returns reported inhibition for input `CC(=O)Nc1nc2c(s1)C(=O)NCC(C)(C)C2`
-8.85

// returns reported inhibition for input `CCOC(=O)Cn1nnnc1C`
-8.58

// returns reported inhibition for input `COc1cccc(C(=O)Nc2nnc(S(=O)(=O)N3CCCCC3)s2)c1`
112

// returns reported inhibition for input `CN(Cc1ccco1)S(=O)(=O)c1nnc(NC(=O)c2ccccc2)s1`
58.2

// returns reported inhibition for input `Cc1cc(Nc2ccc(Cl)cc2)nc(N2CCOCC2)n1`
74.6

// returns reported inhibition for input `CC(=O)c1cccc(NC(=O)COc2ccc(S(=O)(=O)N3CCOCC3)cc2)c1`
3.48

// returns reported inhibition for input `CCCCCN(C(=O)CCC(=O)OCC(=O)NCc1ccc(OC)cc1)c1c(N)n(CCCC)c(=O)[nH]c1=O`
6.98

// returns reported inhibition for input `Fc1ccc(OCc2nn3c(Cn4nnc5ccccc54)nnc3s2)cc1`
57.3

// returns reported inhibition for input `C[C@@H]1CCCCO[C@H](CN(C)Cc2ccccc2)[C@@H](C)CN([C@H](C)CO)C(=O)c2cc(NS(=O)(=O)c3ccc(Cl)cc3)ccc2O1`
36.3

// returns reported inhibition for input CCOC(=O)C(NC(C)=O)C(=O)Nc1ccc(OC)cc1 (stereo not drawn)
-2.17

// returns reported inhibition for input `Cc1cccc(C)c1NC(=O)c1ccc(CN2CCc3ccccc3C2)cc1`
4.01

// returns reported inhibition for input `Cc1ccc2nc(-c3cccc(Br)c3)cc(C(=O)Nn3cnnc3)c2c1`
59.4

// returns reported inhibition for input COc1c(O)ccc2c1CN1CCc3cc4c(cc3C1C2)OCO4 (stereo not drawn)
75.1

// returns reported inhibition for input `CC(C)Cc1nnc(N)s1`
-0.68

// returns reported inhibition for input CC(NC(=S)Nc1ccc(S(N)(=O)=O)cc1)c1ccc2c(c1)OCO2 (stereo not drawn)
-1.17

// returns reported inhibition for input Cc1coc2c(O)cc3c(c12)OC1(N2CCCCC2)C(=O)NCCCC31 (stereo not drawn)
101

// returns reported inhibition for input `Cc1ccc(-c2cc(C(=O)NCc3cn(C)nc3C)c3cc(Br)ccc3n2)cc1`
3.11

// returns reported inhibition for input `COc1cc(C(=O)CCc2ccc3c(c2)OCO3)cc(OC)c1OC`
31.9

Data provenance is PubChem BioAssay AID504690.
